The measured values listed here are drawn from patent US20240218023A1.

Biological target: asialoglycoprotein receptor (ASGPR) on HepG2 cells (human) (UniProt P07306)
Sequence (P07306 whole entry, chain 1 of 2): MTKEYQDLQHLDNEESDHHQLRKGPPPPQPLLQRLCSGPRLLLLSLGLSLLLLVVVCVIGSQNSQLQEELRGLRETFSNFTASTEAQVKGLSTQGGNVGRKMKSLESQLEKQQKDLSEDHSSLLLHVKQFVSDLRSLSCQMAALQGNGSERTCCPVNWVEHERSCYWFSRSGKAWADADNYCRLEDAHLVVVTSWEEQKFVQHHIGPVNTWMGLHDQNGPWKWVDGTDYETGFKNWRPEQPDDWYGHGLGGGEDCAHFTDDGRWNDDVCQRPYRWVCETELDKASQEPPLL
Sequence (P07307 whole entry, chain 2 of 2, further chain): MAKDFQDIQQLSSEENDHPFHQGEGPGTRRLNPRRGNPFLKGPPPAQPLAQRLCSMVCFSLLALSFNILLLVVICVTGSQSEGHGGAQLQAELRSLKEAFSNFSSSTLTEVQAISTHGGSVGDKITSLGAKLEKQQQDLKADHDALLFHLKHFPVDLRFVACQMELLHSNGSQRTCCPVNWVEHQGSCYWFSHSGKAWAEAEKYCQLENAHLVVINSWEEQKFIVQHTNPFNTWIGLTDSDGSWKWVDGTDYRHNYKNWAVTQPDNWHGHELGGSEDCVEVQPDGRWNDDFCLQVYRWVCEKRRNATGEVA
Assay: flow cytometry titration on HepG2 cells (% FAM-positive cells, 1.6-200 nM, 24 h)
pKd: −log10 of the molar value. Square brackets hold non-standard residues; d marks the D form. Side chains are listed from the residue outwards. * marks the point of attachment. Gal‑3 = GalNAc linker: 4-(GalNAc-oxy)butanoic acid (3-acetamido-4,5-diacetoxy-6-(acetoxymethyl)tetrahydropyran-2-yl-oxy)butanoic acid; 5FAM = O=C1OC2(c3ccc(O)cc3Oc3cc(O)ccc32)c2ccc(C(=O)*)cc21; Linker2 = 6-aminohexyl amide linker; GalNAc = N-acetylgalactosamine
property_name: pKd

{"binder": "cyclo([dK]([Gal‑3-GalNAc])[dE]([Linker2-5FAM])[dK]([Gal‑3-GalNAc])G[dK]([Gal‑3-GalNAc])G) [5-FAM-CPMB-0023]", "property_name": "pKd", "recorded_value": 8.07}
{"binder": "KEKGKG (head-to-tail cyclic; D-Glu; each Lys side chain carries GalNAc via linker Gal-5; D-Glu side chain carries Linker2 with 5-FAM) [5-FAM-CPMB-0035]", "property_name": "pKd", "recorded_value": 8.24}
